- target.system: ERRα (Homo sapiens)
- Sequence (P11474 193-421 limits assumed): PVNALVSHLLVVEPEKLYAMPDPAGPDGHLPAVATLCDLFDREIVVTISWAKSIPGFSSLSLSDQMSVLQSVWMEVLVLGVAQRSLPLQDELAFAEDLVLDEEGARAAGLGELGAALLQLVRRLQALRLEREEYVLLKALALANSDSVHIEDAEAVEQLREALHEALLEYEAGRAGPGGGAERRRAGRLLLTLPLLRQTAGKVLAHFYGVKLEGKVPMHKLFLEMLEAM
- measurement.description: ThermoFluor thermal shift assay, ERRα
- Assay type: binding
- condition: 100 μM test compound; 0.1 mg/mL protein, 25 mM HEPES pH 8.0, 25 μM ANS, 2% DMSO; Tm free protein 54.4 °C
value.kind: ΔTm, thermal stabilization of ERRα (°C)
All answers are understood in °C, so give the number only.

In the examples that follow, each entry is paired with its recorded ΔTm, thermal stabilization of ERRα.
Assign ΔTm, thermal stabilization of ERRα to the following record: CCCc1c(-c2ccc(O)cc2)nn(-c2ccc(O)cc2)c1-c1ccc(O)cc1
−2.3

Assign ΔTm, thermal stabilization of ERRα to the following record: COc1cc2c(cc1O)CC[C@@H]1[C@@H]2CC[C@]2(C)[C@@H](O)CC[C@@H]12
0.1

Assign ΔTm, thermal stabilization of ERRα to the following record: N#CC(Cc1ccc(O)cc1)c1ccc(O)cc1 (stereo not shown)
−0.2

Now let's try a different one.
Assign ΔTm, thermal stabilization of ERRα to the following record: Oc1ccc(/C=C/c2cc(O)cc(O)c2)cc1
0.0
